Experiment: Aqueous slurry pH (10% slurry, 25 C)
Format: physicochemical
Settings: compound at 10% by wt. in toilet bar Base 2; 10% slurry, 25 C
Quantity Name: Aqueous slurry pH, Base 2
Simply state the number, no unit and no words.

{"Compound": "[Cl-].[Na+] [Sodium Chloride, reference compound]", "Aqueous slurry pH, Base 2": 8.7}

# input Quick one: Aqueous slurry pH, Base 2 for Cl.N [Ammonium Chloride] ?
# output 8.7

# input Quick one: Aqueous slurry pH, Base 2 for O=C([O-])O.[Na+] [Sodium Bicarbonate, reference compound] ?
# output 8.8

# input Quick one: Aqueous slurry pH, Base 2 for N.N.O=S(=O)(O)O [Ammonium Sulfate] ?
# output 8.9

---

Experiment: Aqueous slurry pH (10% slurry, 25 C)
Type: physicochemical
Details: compound at 10% by wt. in toilet bar Base 1; 10% slurry, 25 C
Quantity Name: Aqueous slurry pH, Base 1
Simply state the number, no unit and no words.

Consider the following illustrative entries.
{"Compound": "O=C([O-])O.[Na+] [Sodium Bicarbonate, reference compound]", "Aqueous slurry pH, Base 1": 7.5}
{"Compound": "N.N.O=S(=O)(O)O [Ammonium Sulfate]", "Aqueous slurry pH, Base 1": 6.7}
{"Compound": "[Cl-].[Na+] [Sodium Chloride, reference compound]", "Aqueous slurry pH, Base 1": 6.7}

Moving on to another compound below.
# input Quick one: Aqueous slurry pH, Base 1 for Cl.N [Ammonium Chloride] ?
# output 6.5

---

The entries below are paired with their reported pH of 1% Solution.
Assay: pH of 1% by wt. aqueous solutions
Assay type: physicochemical
Conditions: pH 1
Simply state the number, no unit and no words.

Consider the following illustrative entries.
{"Compound": "[Ca+2].[OH-].[OH-] [Calcium Hydroxide, reference compound]", "Endpoint Value": 11.8}
{"Compound": "CC(=O)[O-].CC(=O)[O-].[Ca+2] [Calcium Acetate]", "Endpoint Value": 8.2}
{"Compound": "O=S(=O)([O-])[O-].O=S(=O)([O-])[O-].O=S(=O)([O-])[O-].[Fe+3].[Fe+3] [Ferric Sulfate]", "Endpoint Value": 1.7}
{"Compound": "[Ca+2].[Cl-].[Cl-] [Calcium Chloride]", "Endpoint Value": 9.3}

# input Quick one: pH of 1% Solution for CC(=O)O.N [Ammonium Acetate] ?
# output 6.9

# input Quick one: pH of 1% Solution for N.N.N.O=P(O)(O)O [Ammonium Phosphate] ?
# output 4.2

# input Quick one: pH of 1% Solution for O=S(=O)([O-])[O-].[Na+].[Na+] [Sodium Sulfate, reference compound] ?
# output 9.1

---

The entries below are paired with their reported Aqueous slurry pH, Base 3.
Test: Aqueous slurry pH (10% slurry, 25 C)
Type: physicochemical
Conditions: compound at 10% by wt. in toilet bar Base 3; 10% slurry, 25 C

{"Compound": "[Cl-].[Na+] [Sodium Chloride, reference compound]", "Aqueous slurry pH, Base 3": 10.1}
{"Compound": "O=C([O-])O.[Na+] [Sodium Bicarbonate, reference compound]", "Aqueous slurry pH, Base 3": 9.4}
{"Compound": "Cl.N [Ammonium Chloride]", "Aqueous slurry pH, Base 3": 9.1}

Moving on to another compound below.
# input Quick one: Aqueous slurry pH, Base 3 for N.N.O=S(=O)(O)O [Ammonium Sulfate] ?
# output 9.4

---

Test: pH of 1% by wt. aqueous solutions
Format: physicochemical
Settings: 1% by wt. aqueous solution of the compound
Quantity Name: pH of 1% Solution
Simply state the number, no unit and no words.

Consider the following illustrative entries.
{"Molecule": "Cl.N [Ammonium Chloride]", "Quantity Name": "pH of 1% Solution", "Endpoint Value": 4.9}
{"Molecule": "O=C([O-])O.[Na+] [Sodium Bicarbonate, reference compound]", "Quantity Name": "pH of 1% Solution", "Endpoint Value": 8.3}
{"Molecule": "[Cl-].[Na+] [Sodium Chloride, reference compound]", "Quantity Name": "pH of 1% Solution", "Endpoint Value": 8.1}

Moving on to another molecule below.
# input Quick one: pH of 1% Solution for N.N.O=S(=O)(O)O [Ammonium Sulfate] ?
# output 5.0

---

Test: Aqueous slurry pH (10% slurry, 25 C)
Assay type: physicochemical
Quantity Name: Aqueous slurry pH, Base 2
Simply state the number, no unit and no words.

# input Quick one: Aqueous slurry pH, Base 2 for [Cl-].[Cl-].[Mg+2] [Magnesium Chloride] ?
# output 8.4

---

Test: Aqueous slurry pH (10% slurry, 25 C)
Type: physicochemical
# note: boundary value 10 maps to no; Aqueous slurry pH, Base 3 below it maps to yes

# count of solved cases: 5
{"Compound": "[Ca+2].[OH-].[OH-] [Calcium Hydroxide, reference compound]", "Class": "no"}
{"Compound": "CC(=O)O.N [Ammonium Acetate]", "Class": "yes"}
{"Compound": "O=C([O-])[O-].[Ca+2] [Calcium Carbonate, reference compound]", "Class": "no"}
{"Compound": "O=S(=O)([O-])[O-].O=S(=O)([O-])[O-].O=S(=O)([O-])[O-].[Fe+3].[Fe+3] [Ferric Sulfate]", "Class": "yes"}
{"Compound": "N.N.N.O=P(O)(O)O [Ammonium Phosphate]", "Class": "yes"}

Below: the item to evaluate.
# input Please let me know if O=S(=O)([O-])[O-].[Na+].[Na+] [Sodium Sulfate, reference compound] shows Aqueous slurry pH, Base 3 below 10.
# output no

---

The entries below are paired with their reported Aqueous slurry pH, Base 1.
Assay: Aqueous slurry pH (10% slurry, 25 C)
Type: physicochemical

Consider the following illustrative entries.
{"Molecule": "O=S(=O)([O-])[O-].O=S(=O)([O-])[O-].O=S(=O)([O-])[O-].[Fe+3].[Fe+3] [Ferric Sulfate]", "Aqueous slurry pH, Base 1": 1.5}
{"Molecule": "O=S(=O)([O-])[O-].[Ca+2] [Calcium Sulfate]", "Aqueous slurry pH, Base 1": 4.9}

Moving on to another molecule below.
# input Quick one: Aqueous slurry pH, Base 1 for [Cl-].[Cl-].[Mg+2] [Magnesium Chloride] ?
# output 5.9

---

Experiment: pH of 1% by wt. aqueous solutions
Type: physicochemical
Conditions: pH 1
The entries below are paired with their reported pH of 1% Solution.
Simply state the number, no unit and no words.

Consider the following illustrative entries.
{"Compound": "O=C([O-])[O-].[Ca+2] [Calcium Carbonate, reference compound]", "pH of 1% Solution": 9.2}
{"Compound": "[Cl-].[Cl-].[Mg+2] [Magnesium Chloride]", "pH of 1% Solution": 5.2}
{"Compound": "O=P(O)(O)O [Sodium Phosphate, reference compound]", "pH of 1% Solution": 9.1}
{"Compound": "O=S(=O)([O-])[O-].[Mg+2] [Magnesium Sulfate]", "pH of 1% Solution": 6.5}

# input Quick one: pH of 1% Solution for O=[N+]([O-])[O-].O=[N+]([O-])[O-].[Ca+2] [Calcium Nitrate] ?
# output 5.3

---

Experiment: Aqueous slurry pH (10% slurry, 25 C)
Type: physicochemical
The entries below are paired with their reported Aqueous slurry pH, Base 1.
Simply state the number, no unit and no words.

Consider the following illustrative entries.
{"Compound": "CC(=O)O.N [Ammonium Acetate]", "Aqueous slurry pH, Base 1": 6.8}
{"Compound": "CC(=O)[O-].CC(=O)[O-].[Ca+2] [Calcium Acetate]", "Aqueous slurry pH, Base 1": 5.2}
{"Compound": "O=S(=O)([O-])[O-].[Mg+2] [Magnesium Sulfate]", "Aqueous slurry pH, Base 1": 6.2}
{"Compound": "O=[N+]([O-])[O-].O=[N+]([O-])[O-].[Ca+2] [Calcium Nitrate]", "Aqueous slurry pH, Base 1": 5.2}

# input Quick one: Aqueous slurry pH, Base 1 for O=P(O)(O)O [Sodium Phosphate, reference compound] ?
# output 7.2

---

Assay: Aqueous slurry pH (10% slurry, 25 C)
Type: physicochemical
Quantity Name: Aqueous slurry pH, Base 3
Simply state the number, no unit and no words.

Consider the following illustrative entries.
{"Molecule": "[Ca+2].[Cl-].[Cl-] [Calcium Chloride]", "Aqueous slurry pH, Base 3": 9.8}
{"Molecule": "O=P(O)(O)O [Sodium Phosphate, reference compound]", "Aqueous slurry pH, Base 3": 10.2}

# input Quick one: Aqueous slurry pH, Base 3 for O=[N+]([O-])[O-].O=[N+]([O-])[O-].[Ca+2] [Calcium Nitrate] ?
# output 10.1

---

Assay: Aqueous slurry pH (10% slurry, 25 C)
Type: physicochemical
Quantity Name: Aqueous slurry pH, Base 2
Simply state the number, no unit and no words.

{"Compound": "O=S(=O)([O-])[O-].O=S(=O)([O-])[O-].O=S(=O)([O-])[O-].[Fe+3].[Fe+3] [Ferric Sulfate]", "Endpoint Value": 7.5}
{"Compound": "N.N.N.O=P(O)(O)O [Ammonium Phosphate]", "Endpoint Value": 7.6}
{"Compound": "[Ca+2].[Cl-].[Cl-] [Calcium Chloride]", "Endpoint Value": 6.9}

# input Quick one: Aqueous slurry pH, Base 2 for CC(=O)[O-].CC(=O)[O-].[Ca+2] [Calcium Acetate] ?
# output 8.1

# input Quick one: Aqueous slurry pH, Base 2 for O=C([O-])[O-].[Ca+2] [Calcium Carbonate, reference compound] ?
# output 9.0

# input Quick one: Aqueous slurry pH, Base 2 for O=S(=O)([O-])[O-].[Na+].[Na+] [Sodium Sulfate, reference compound] ?
# output 8.9

# input Quick one: Aqueous slurry pH, Base 2 for O=P(O)(O)O [Sodium Phosphate, reference compound] ?
# output 8.9

# input Quick one: Aqueous slurry pH, Base 2 for O=S(=O)([O-])[O-].[Ca+2] [Calcium Sulfate] ?
# output 8.8

# input Quick one: Aqueous slurry pH, Base 2 for O=[N+]([O-])[O-].O=[N+]([O-])[O-].[Ca+2] [Calcium Nitrate] ?
# output 8.6

# input Quick one: Aqueous slurry pH, Base 2 for O=S(=O)([O-])[O-].[Mg+2] [Magnesium Sulfate] ?
# output 8.6

# input Quick one: Aqueous slurry pH, Base 2 for CC(=O)O.N [Ammonium Acetate] ?
# output 8.9

# input Quick one: Aqueous slurry pH, Base 2 for [Ca+2].[OH-].[OH-] [Calcium Hydroxide, reference compound] ?
# output 12.1
